# assay system: GST-Aq-NF-kB (Amphimedon queenslandica, UniProt A9Y5G7 2-389)
# Sequence: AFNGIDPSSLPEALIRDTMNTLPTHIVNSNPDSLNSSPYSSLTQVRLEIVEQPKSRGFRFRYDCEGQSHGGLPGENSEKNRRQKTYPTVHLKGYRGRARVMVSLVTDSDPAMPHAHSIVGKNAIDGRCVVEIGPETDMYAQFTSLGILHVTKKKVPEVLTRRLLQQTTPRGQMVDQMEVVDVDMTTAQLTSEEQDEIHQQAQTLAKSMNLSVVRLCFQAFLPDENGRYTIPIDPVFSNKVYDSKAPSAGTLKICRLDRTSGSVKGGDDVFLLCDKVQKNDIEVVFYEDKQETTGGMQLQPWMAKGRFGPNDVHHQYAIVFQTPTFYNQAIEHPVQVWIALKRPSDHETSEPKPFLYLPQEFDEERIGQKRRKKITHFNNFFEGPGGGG
# assay notes: protein-binding microarray (PBM); PBM: ~300 nM protein, 6 mM HEPES pH 7.8, 80 mM KCl, 0.5 mM EDTA, 0.5 mM EGTA, 6% glycerol, 35 ng/ul poly-dIdC, 1% milk, 1 h, room temperature; Ap Aiptasia and Nv Nematostella (sea anemones) / Co Capsaspora / Aq Amphimedon (sponge) / Dm Drosophila / Hu human; RHD is the Rel homology domain; high values mean tight binding
# condition description: dsDNA, one strand shown
property measured: binding signal (z-score)

>>> print(df.to_string())
                                    seq_text  property_measured  units_text  obs_value
 0  CCGATTAACATCAGGGAATTAGATGATGTTAATCGGGTCTTGATTCGCTTGACGCTGCTG     binding signal     z-score       3.43
 1  CCGATTAACATCAAAAAACCCCCTGATGTTAATCGGGTCTTGATTCGCTTGACGCTGCTG     binding signal     z-score       9.82
 2  CCGATTAACATCAAGAAGTCCCCTGATGTTAATCGGGTCTTGATTCGCTTGACGCTGCTG     binding signal     z-score       6.79
 3  CCGATTAACATCAAGAATTTTCCTGATGTTAATCGGGTCTTGATTCGCTTGACGCTGCTG     binding signal     z-score       1.12
 4  CCGATTAACATCAGGCAAGTCCCTGATGTTAATCGGGTCTTGATTCGCTTGACGCTGCTG     binding signal     z-score       5.74
 5  CCGATTAACATCAAGGGGGATACTGATGTTAATCGGGTCTTGATTCGCTTGACGCTGCTG     binding signal     z-score       4.99
 6  CCGATTAACATCACATCTCCCCCTGATGTTAATCGGGTCTTGATTCGCTTGACGCTGCTG     binding signal     z-score       4.36
 7  CCGATTAACATCACGGAAAGCCCTGATGTTAATCGGGTCTTGATTCGCTTGACGCTGCTG     binding signal     z-score       4.35
 8  CCGATTAACATCAAAAATCCGGTTGATGTTAATCGGGTCTTGATTCGCTTGACGCTGCTG     binding signal     z-score       1.32
 9  CCGATTAACATCACATATACCCCTGATGTTAATCGGGTCTTGATTCGCTTGACGCTGCTG     binding signal     z-score       2.28
10  CCGATTAACATCAATTTATCCCCTGATGTTAATCGGGTCTTGATTCGCTTGACGCTGCTG     binding signal     z-score       3.84
11  CCGATTAACATCACGAAAACCCCTGATGTTAATCGGGTCTTGATTCGCTTGACGCTGCTG     binding signal     z-score        5.3
12  CCGATTAACATCAGGGACCGCCCTGATGTTAATCGGGTCTTGATTCGCTTGACGCTGCTG     binding signal     z-score       6.48
13  CCGATTAACATCAGGAAAATCCCTGATGTTAATCGGGTCTTGATTCGCTTGACGCTGCTG     binding signal     z-score       8.07
14  CCGATTAACATCACGGTTTTTCCTGATGTTAATCGGGTCTTGATTCGCTTGACGCTGCTG     binding signal     z-score        3.6
15  CCGATTAACATCACGGAATTTCCTGATGTTAATCGGGTCTTGATTCGCTTGACGCTGCTG     binding signal     z-score       4.83
16  CCGATTAACATCACAAATCCCCCTGATGTTAATCGGGTCTTGATTCGCTTGACGCTGCTG     binding signal     z-score        6.8
17  CCGATTAACATCAATGGAATTCCTGATGTTAATCGGGTCTTGATTCGCTTGACGCTGCTG     binding signal     z-score        1.5
